So I've got a bunch of compounds here, and I need their TG % of diff. values.
test system: serum lipids and serum lipid hydroperoxide; assay: Pharmacological test method A for anti-hyperlipidemic activity (serum lipids, 2 weeks feeding); type: in vivo, male Wistar strain rats; conditions: versus control group
Answers are plain numbers, in %.

Some compounds with recorded TG % of diff.:
{"COMPOUND": "CC(C)=CCCC(C)C1CCC2(C)C3CCC4C(C)(C)C(OC(=O)c5ccc(O)c(O)c5)CCC45CC35CCC12C (centres unmarked) [Example 27, cycloartenyl-3,4-dihydroxybenzoate]", "TG % of diff., %": -5.5}
{"COMPOUND": "CC(C)=C(C)CCC(C)C1CCC2(C)C3CCC4C(C)(C)C(OC(=O)c5cccnc5)CCC45CC35CCC12C (centres unmarked) [Example 50, cyclobranylnicotinate]", "TG % of diff., %": -4.3}
{"COMPOUND": "C=C(CCC(C)C1CCC2(C)C3CCC4C(C)(C)C(OC(=O)C=Cc5ccc(OC(C)=O)cc5)CCC45CC35CCC12C)C(C)C (centres unmarked) [Example 83]", "TG % of diff., %": -4.0}
{"COMPOUND": "COc1cc(C=CC(=O)OC2CCC34CC35CCC3(C)C(C(C)CCC(C)=C(C)C)CCC3(C)C5CCC4C2(C)C)ccc1O (centres unmarked) [Example 100-2, cyclobranyl-4-hydroxy-3-methoxycinnamate]", "TG % of diff., %": -37.0}
{"COMPOUND": "CC(C)=CCCC(C)C1CCC2(C)C3CCC4C(C)(C)C(OC(=O)C=Cc5cccc(N)c5)CCC45CC35CCC12C (centres unmarked) [Example 108]", "TG % of diff., %": -14.7}
{"COMPOUND": "CC(C)=CCCC(C)C1CCC2(C)C3CCC4C(C)(C)C(OC(=O)C=Cc5ccc(N)cc5)CCC45CC35CCC12C (centres unmarked) [Example 102]", "TG % of diff., %": -21.5}
{"COMPOUND": "CC(=O)Nc1ccc(C(=O)OC2CCC34CC35CCC3(C)C(C(C)CCC=C(C)C)CCC3(C)C5CCC4C2(C)C)cc1 (centres unmarked) [Example 20, cycloartenyl-p-acetamidobenzoate]", "TG % of diff., %": -3.0}
{"COMPOUND": "CC(C)=C(C)CCC(C)C1CCC2(C)C3CCC4C(C)(C)C(OC(=O)c5ccc(O)cc5)CCC45CC35CCC12C (centres unmarked) [Example 58, cyclobranyl-p-hydroxybenzoate]", "TG % of diff., %": -1.5}
{"COMPOUND": "CCOc1cc(C(=O)OC2CCC34CC35CCC3(C)C(C(C)CCC=C(C)C)CCC3(C)C5CCC4C2(C)C)ccc1O (centres unmarked) [Example 60, cycloartenyl-3-ethoxy-4-hydroxybenzoate]", "TG % of diff., %": -1.2}
{"COMPOUND": "CC(C)=CCCC(C)C1CCC2(C)C3CCC4C(C)(C)C(OC(=O)C=Cc5ccc([N+](=O)[O-])cc5)CCC45CC35CCC12C (centres unmarked) [Example 101]", "TG % of diff., %": -17.1}

Quick one: give me TG % of diff. for each item below, same order please.
1. CC(C)=CCCC(C)C1CCC2(C)C3CCC4C(C)(C)C(OC(=O)c5cccc(O)c5)CCC45CC35CCC12C (centres unmarked) [Example 12, cycloartenyl-m-hydroxybenzoate]
2. CC(C)=CCCC(C)C1CCC2(C)C3CCC4C(C)(C)C(OC(=O)c5cccnc5)CCC45CC35CCC12C (centres unmarked) [Example 24, cycloartenyl nicotinate]

Reply:
[-3.2, 4.3]

// each compound listed below needs its TG % of diff.
1. COc1cc(C(=O)OC2CCC34CC35CCC3(C)C(C(C)CCC(C)=C(C)C)CCC3(C)C5CCC4C2(C)C)ccc1O (centres unmarked) [Example 37, cyclobranyl-4-hydroxy-3-methoxybenzoate]
2. C=C(CCC(C)C1CCC2(C)C3CCC4C(C)(C)C(OC(=O)C=Cc5ccc(OC(C)=O)c(OCC)c5)CCC45CC35CCC12C)C(C)C (centres unmarked) [Example 72]
3. CCOc1cc(C=CC(=O)OC2CCC34CC35CCC3(C)C(C(C)CCC(C)=C(C)C)CCC3(C)C5CCC4C2(C)C)ccc1O (centres unmarked) [Example 71, cyclobranyl-3-ethoxy-4-hydroxycinnamate]

Reply:
[-6.6, -2.4, -2.8]

Look up TG % of diff. for the entries below, preserving their order.
1. CC(C)=C(C)CCC(C)C1CCC2(C)C3CCC4C(C)(C)C(OC(=O)c5ccccc5O)CCC45CC35CCC12C (centres unmarked) [Example 41, cyclobranyl-o-hydroxybenzoate]
2. C=C(CCC(C)C1CCC2(C)C3CCC4C(C)(C)C(OC(=O)CCCCCCC/C=C\C/C=C\CCCCC)CCC45CC35CCC12C)C(C)C (centres unmarked) [Example 93]

Reply:
1: -3.0; 2: -3.3

# batch: return TG % of diff. for each of the 5 compounds below
1. CC(C)=C(C)CCC(C)C1CCC2(C)C3CCC4C(C)(C)C(OC(=O)c5ccccc5N)CCC45CC35CCC12C (centres unmarked) [Example 47, cyclobranyl-o-aminobenzoate]
2. COc1ccccc1C(=O)OC1CCC23CC24CCC2(C)C(C(C)CCC=C(C)C)CCC2(C)C4CCC3C1(C)C (centres unmarked) [Example 13, cycloartenyl-o-methoxybenzoate]
3. CC(C)=C(C)CCC(C)C1CCC2(C)C3CCC4C(C)(C)C(OC(=O)c5ccc(O)c(O)c5)CCC45CC35CCC12C (centres unmarked) [Example 39, cyclobranyl-3,4-dihydroxybenzoate]
4. CC(C)=CCCC(C)C1CCC2(C)C3CCC4C(C)(C)C(OC(=O)c5ccccc5[N+](=O)[O-])CCC45CC35CCC12C (centres unmarked) [Example 16, cycloartenyl-o-nitrobenzoate]
5. C=C(CCC(C)C1CCC2(C)C3CCC4C(C)(C)C(OC(=O)C=Cc5ccc(O)c(O)c5)CCC45CC35CCC12C)C(C)C (centres unmarked) [Example 82]

Reply:
1. -17.7
2. -3.7
3. -6.9
4. -11.3
5. -1.2
